// fold change (FC) lookup, one value per entry
biological target: Peroxisome proliferator-activated receptor gamma (Homo sapiens) (UniProt P37231); assay: Agonist activity at human PPARgamma expressed in HEK293 cells co-transfected with PPRE assessed as beta-galactosidase signal at 25 uM after 48 hrs by reporter gene assay relative to control; type: functional, cell-based
# output: bare number, no unit

A selection of reference data follows.
- COc1ccc(/C=C/C(=O)c2ccc(O)cc2O)cc1OC: 3.5
- O=c1c(-c2cccc(F)c2)coc2cc(O)ccc12: 4.1
- CCc1cc2c(=O)c(-c3ccc4c(c3)OCO4)c(C)oc2cc1O: 5.3

Give fold change (FC) for Cc1[nH]nc(-c2ccc(O)cc2O)c1-c1ccc(F)cc1 5.3

###

target: Peroxisome proliferator-activated receptor alpha (Homo sapiens) (UniProt Q07869); assay: Agonist activity at human PPARalpha expressed in HEK293 cells co-transfected with PPRE assessed as beta-galactosidase signal at 40 uM after 48 hrs by reporter gene assay relative to control; format: functional, cell-based
Sequence (Q07869 whole entry): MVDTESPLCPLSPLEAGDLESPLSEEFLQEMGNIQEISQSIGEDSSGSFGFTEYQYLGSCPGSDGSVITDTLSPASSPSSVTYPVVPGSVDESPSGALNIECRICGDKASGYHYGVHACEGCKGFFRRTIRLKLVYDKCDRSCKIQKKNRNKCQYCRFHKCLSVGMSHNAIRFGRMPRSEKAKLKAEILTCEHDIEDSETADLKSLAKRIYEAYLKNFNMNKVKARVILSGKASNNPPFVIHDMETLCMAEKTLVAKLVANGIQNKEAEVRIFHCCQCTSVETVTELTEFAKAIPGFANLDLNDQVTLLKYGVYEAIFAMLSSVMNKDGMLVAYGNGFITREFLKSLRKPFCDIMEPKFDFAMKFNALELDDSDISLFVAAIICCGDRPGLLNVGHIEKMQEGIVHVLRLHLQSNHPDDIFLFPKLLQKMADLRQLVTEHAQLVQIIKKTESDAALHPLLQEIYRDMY
measured_parameter: fold change (FC)
# output: bare number, no unit

• COc1cccc(-c2coc3cc(O)ccc3c2=O)c1 = 43
• O=c1c(-c2ccc(O)cc2)coc2cc(O)ccc12 = 13.4
• COc1ccc(-c2cc(=O)c3c(O)cc(O)cc3o2)cc1O = 3.8
• O=c1cc(-c2ccc(O)cc2)oc2ccc(O)cc12 = 3.5
• O=c1c(-c2ccc3c(c2)OCO3)coc2cc(O)ccc12 = 11.7
• O=c1cc(-c2ccccc2)oc2cc(O)cc(O)c12 = 5.3
• O=c1c(-c2ccc(F)cc2)coc2cc(O)ccc12 = 28.7
• COc1ccc(-c2coc3cc(O)ccc3c2=O)cc1 = 7.8

Could you now look at the following compound, please?
Give fold change (FC) for O=c1c(-c2ccc3c(c2)OCCO3)coc2cc(OC3CCCCO3)ccc12 (centres undefined) 3.3

###

biological target: Peroxisome proliferator-activated receptor gamma (Homo sapiens) (UniProt P37231); assay: Agonist activity at human PPARgamma expressed in HEK293 cells co-transfected with PPRE assessed as beta-galactosidase signal at 25 uM after 48 hrs by reporter gene assay relative to control; type: functional, cell-based
measured_parameter: fold change (FC)
# output: bare number, no unit

# assay system Peroxisome proliferator-activated receptor gamma (Homo sapiens) (UniProt P37231): give fold change (FC) of O=c1c(-c2ccc(C(F)(F)F)cc2)coc2cc(O)ccc12 4.4

###

// fold change (FC) lookup, one value per entry
Molecular target: Peroxisome proliferator-activated receptor gamma (Homo sapiens)
Sequence (whole entry): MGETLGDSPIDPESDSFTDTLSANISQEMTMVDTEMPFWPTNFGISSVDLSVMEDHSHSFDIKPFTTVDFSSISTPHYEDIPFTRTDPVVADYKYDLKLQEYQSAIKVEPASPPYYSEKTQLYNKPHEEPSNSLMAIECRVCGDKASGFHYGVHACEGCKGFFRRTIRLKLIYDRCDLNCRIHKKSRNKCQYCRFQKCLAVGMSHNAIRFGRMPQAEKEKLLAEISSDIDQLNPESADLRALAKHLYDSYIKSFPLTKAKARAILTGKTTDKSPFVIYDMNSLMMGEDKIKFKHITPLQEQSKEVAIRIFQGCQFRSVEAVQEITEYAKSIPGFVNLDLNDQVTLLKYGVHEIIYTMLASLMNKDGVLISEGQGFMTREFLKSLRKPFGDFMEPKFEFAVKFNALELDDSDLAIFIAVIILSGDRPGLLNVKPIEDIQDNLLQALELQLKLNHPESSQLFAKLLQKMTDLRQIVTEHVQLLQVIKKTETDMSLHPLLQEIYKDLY
Test: Agonist activity at human PPARgamma expressed in HEK293 cells co-transfected with PPRE assessed as beta-galactosidase signal at 25 uM after 48 hrs by reporter gene assay relative to control
Type: functional, cell-based
# output: bare number, no unit

A selection of reference data follows.
* COc1ccccc1/C=C/C(=O)c1ccc(O)cc1O | 1.1
* O=c1c(O)c(-c2ccc(O)cc2)oc2cc(O)cc(O)c12 | 3.5
* COc1cc(-c2oc3cc(O)cc(O)c3c(=O)c2O)cc(OC)c1O | 1.2
* COc1ccc(-c2coc3cc(O)ccc3c2=O)cc1OC | 10.5
* O=c1c(-c2ccc(Cl)cc2)coc2cc(O)ccc12 | 2.6

Could you now look at the following compound, please?
Give fold change (FC) for COc1ccc(-c2coc3cc(O)ccc3c2=O)cc1 12.8

###

molecular target: Peroxisome proliferator-activated receptor gamma (Homo sapiens); assay: Agonist activity at human PPARgamma expressed in HEK293 cells co-transfected with PPRE assessed as beta-galactosidase signal at 25 uM after 48 hrs by reporter gene assay relative to control; assay type: functional, cell-based
Label met for high-side fold change (FC) (at or above 4) and not met for low-side fold change (FC) (below it).

# count of solved cases: 8
- O=c1c(-c2ccc(F)cc2)coc2cc(O)ccc12: met
- O=c1c(-c2ccc3c(c2)OCCO3)coc2cc(OC3CCCCO3)ccc12 (centres undefined): not met
- O=c1c(-c2ccc(O)c(O)c2)coc2cc(O)ccc12: met
- O=c1c(-c2ccc3c(c2)OCO3)coc2cc(O)ccc12: met
- COc1cc(OC)cc(-c2coc3cc(O)ccc3c2=O)c1: met
- COc1ccc([C@@H]2CC(=O)c3c(O)cc(O)cc3O2)cc1O: not met
- COc1ccccc1-c1coc2cc(O)ccc2c1=O: not met
- O=c1c(O)c(-c2ccc(O)c(O)c2)oc2cc(O)cc(O)c12: not met

API: the following record is the query input.
Given COc1ccc(-c2cc(=O)c3c(O)cc(O)cc3o2)cc1 , state whether its fold change (FC) is at least 4. met
